Tested on: IGROV1 ovarian
Test: NCI-60 one-dose screen, 48 h (100 = growth as untreated, 0 = no growth, -100 = all killed)
Settings: 10 µM unless noted
This is part of a sample that, as a whole, favours compounds with a hit. Of some 83,000 tested, about 20% had one in any assay.
Attribute measured: growth (%)
One number for each entry, in %.

# example entries with known answers
Compound: CC(C)(C)c1ccc(C(=O)Nc2sc3c(c2C(N)=O)CC/C(=N\O)C3)cc1
growth (%): 27.6
//
Compound: COc1cc(OC)c(S(N)(=O)=O)cc1C(C)=O
growth (%): 112
//
Compound: Cc1cccc2c3c(sc12)C(c1ccc(F)cc1)C(C#N)=C(/N=C/c1ccc(Cl)cc1)O3 (stereo not given)
growth (%): 22.5
//
Compound: COc1ccccc1NCc1cccn1Cc1ccc(F)cc1
growth (%): 88.8

Requested field: growth. Item: CCC(CC)N1C(=O)/C(=c2\sc3n(c2=O)NC2C(N=3)N(CC)C(=O)N2CC)c2ccccc21 (stereo not given)
44.7
